Listed here: items and their measured pIC50.
experimental_system: Amine oxidase [flavin-containing] A (Homo sapiens, UniProt P21397)
Sequence (P21397 whole entry): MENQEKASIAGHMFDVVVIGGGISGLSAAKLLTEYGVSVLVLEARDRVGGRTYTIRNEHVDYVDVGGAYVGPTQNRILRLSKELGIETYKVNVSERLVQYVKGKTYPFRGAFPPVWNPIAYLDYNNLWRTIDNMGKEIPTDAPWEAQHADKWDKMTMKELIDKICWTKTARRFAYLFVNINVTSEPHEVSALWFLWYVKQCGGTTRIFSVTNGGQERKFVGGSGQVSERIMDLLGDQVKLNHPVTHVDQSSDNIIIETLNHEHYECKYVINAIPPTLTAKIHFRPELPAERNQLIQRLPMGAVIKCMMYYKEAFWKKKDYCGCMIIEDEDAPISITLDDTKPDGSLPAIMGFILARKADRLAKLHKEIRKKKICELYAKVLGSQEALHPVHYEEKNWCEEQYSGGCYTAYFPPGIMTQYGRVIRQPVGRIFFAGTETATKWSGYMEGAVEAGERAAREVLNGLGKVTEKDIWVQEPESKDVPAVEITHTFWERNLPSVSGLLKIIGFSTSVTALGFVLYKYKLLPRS
assay_notes: Inhibition of human recombinant MAO-A using kynuramine as substrate after 30 mins by fluorescence spectrophotometry
Please keep in mind that pIC50 is minus log10 of the molar concentration; only the number is needed.

These recorded examples may help you get a feel for the data.
>>> experimental_value("O=C1/C(=C/c2ccc(N3CCOCC3)cc2)Oc2cc(O)cc(O)c21")
5.97
>>> experimental_value("O=C1/C(=C/c2ccc(N3CCCCC3)cc2)Oc2cc(O)cc(O)c21")
6.57
>>> experimental_value("CN(C)c1ccc(/C=C2\\Oc3cc(O)cc(O)c3C2=O)cc1")
6.63

Give the measured pIC50 for O=C1/C(=C/c2ccc(N3CCCC3)cc2)Oc2cc(O)cc(O)c21 6.34

Give the measured pIC50 for CCN(CC)c1ccc(/C=C2\Oc3cc(O)cc(O)c3C2=O)cc1 6.94

Give the measured pIC50 for CCN(C)c1ccc(/C=C2\Oc3cc(O)cc(O)c3C2=O)cc1 7.55

* * *

assay_notes: Antioxidant activity assessed as AAPH free radical scavenging activity measured as trolox equivalent at 5 uM preincubated for 15 mins followed by AAPH addition measured every min for 90 mins by fluorescence assay
Format: physicochemical
settings: 1.5 h
measured_quantity: Activity (equiv)
Please reply with the bare figure in equiv and do not write the unit itself.

>>> experimental_value("O=C1/C(=C/c2ccc(N3CCCC3)cc2)Oc2cc(O)cc(O)c21")
1.56
>>> experimental_value("CCN(C)c1ccc(/C=C2\\Oc3cc(O)cc(O)c3C2=O)cc1")
1.97
>>> experimental_value("CN(C)c1ccc(/C=C2\\Oc3cc(N(C)C)cc(O)c3C2=O)cc1")
2.43
>>> experimental_value("COc1cc(O)c2c(c1)O/C(=C\\c1ccc(N(C)C)cc1)C2=O")
1.62
>>> experimental_value("CN(C)c1ccc(CC2Oc3cc(O)cc(O)c3C2=O)cc1 (stereo unspecified)")
3.07

Next item in the queue.
Give the measured Activity for CCN(CC)c1ccc(/C=C2\Oc3cc(O)cc(O)c3C2=O)cc1 2.04

* * *

assay_notes: Antioxidant activity assessed as AAPH free radical scavenging activity measured as trolox equivalent at 5 uM preincubated for 15 mins followed by AAPH addition measured every min for 90 mins by fluorescence assay
Format: physicochemical
settings: 1.5 h
Output t for records whose Activity is lower than 2 equiv, f for records at or above 2 equiv.

Before answering, review these 3 worked examples.
>>> class("O=C1/C(=C/c2ccc(N3CCOCC3)cc2)Oc2cc(O)cc(O)c21")
"f"
>>> class("CN(C)c1ccc(/C=C2\\Oc3cc(O)cc(O)c3C2=O)cc1")
"f"
>>> class("CN1CCN(c2ccc(/C=C3\\Oc4cc(O)cc(O)c4C3=O)cc2)CC1")
"f"

API: query returns whether the compound falls strictly under 2 equiv in Activity. Query: COc1cc(O)c2c(c1)O/C(=C\c1ccc(N3CCCCC3)cc1)C2=O t

API: query returns whether the compound falls strictly under 2 equiv in Activity. Query: COc1cc(O)c2c(c1)O/C(=C\c1ccc(N3CCOCC3)cc1)C2=O t

API: query returns whether the compound falls strictly under 2 equiv in Activity. Query: O=C1c2c(O)cc(O)cc2OC1Cc1ccc(N2CCOCC2)cc1 (stereo not drawn) f

API: query returns whether the compound falls strictly under 2 equiv in Activity. Query: CN(C)c1ccccc1/C=C1\Oc2cc(O)cc(O)c2C1=O f

API: query returns whether the compound falls strictly under 2 equiv in Activity. Query: O=C1/C(=C/c2ccc(N3CCCCC3)cc2)Oc2cc(O)cc(O)c21 t

* * *

Species on record: Homo sapiens
assay_notes: Selectivity ratio of IC50 for human recombinant MAO-A to IC50 for human recombinant MAO-B
Give yes when the value for Ratio IC50 is at least 0.3. Give no when it is less.

>>> class("CCN(CC)c1ccc(/C=C2\\Oc3cc(O)cc(O)c3C2=O)cc1")
"yes"
>>> class("CN1CCN(c2ccc(/C=C3\\Oc4cc(O)cc(O)c4C3=O)cc2)CC1")
"yes"
>>> class("O=C1/C(=C/c2ccc(N3CCOCC3)cc2)Oc2cc(O)cc(O)c21")
"yes"
>>> class("CCN(C)c1ccc(/C=C2\\Oc3cc(O)cc(O)c3C2=O)cc1")
"no"
>>> class("COc1cc(O)c2c(c1)O/C(=C\\c1ccc(N3CCCCC3)cc1)C2=O")
"yes"
>>> class("COc1cc(O)c2c(c1)O/C(=C\\c1ccc(N3CCOCC3)cc1)C2=O")
"yes"
>>> class("CN(C)c1ccc(/C=C2\\Oc3cc(O)cc(O)c3C2=O)cc1")
"no"
>>> class("COc1cc(O)c2c(c1)O/C(=C\\c1ccc(N(C)C)cc1)C2=O")
"yes"

Could you tell me if the measured Ratio IC50 of O=C1/C(=C/c2ccc(N3CCCCC3)cc2)Oc2cc(O)cc(O)c21 reaches 0.3 or more? yes

Could you tell me if the measured Ratio IC50 of O=C1/C(=C/c2ccc(N3CCCC3)cc2)Oc2cc(O)cc(O)c21 reaches 0.3 or more? yes

* * *

experimental_system: Amyloid-beta precursor protein (Homo sapiens, UniProt P05067)
Sequence (P05067 whole entry): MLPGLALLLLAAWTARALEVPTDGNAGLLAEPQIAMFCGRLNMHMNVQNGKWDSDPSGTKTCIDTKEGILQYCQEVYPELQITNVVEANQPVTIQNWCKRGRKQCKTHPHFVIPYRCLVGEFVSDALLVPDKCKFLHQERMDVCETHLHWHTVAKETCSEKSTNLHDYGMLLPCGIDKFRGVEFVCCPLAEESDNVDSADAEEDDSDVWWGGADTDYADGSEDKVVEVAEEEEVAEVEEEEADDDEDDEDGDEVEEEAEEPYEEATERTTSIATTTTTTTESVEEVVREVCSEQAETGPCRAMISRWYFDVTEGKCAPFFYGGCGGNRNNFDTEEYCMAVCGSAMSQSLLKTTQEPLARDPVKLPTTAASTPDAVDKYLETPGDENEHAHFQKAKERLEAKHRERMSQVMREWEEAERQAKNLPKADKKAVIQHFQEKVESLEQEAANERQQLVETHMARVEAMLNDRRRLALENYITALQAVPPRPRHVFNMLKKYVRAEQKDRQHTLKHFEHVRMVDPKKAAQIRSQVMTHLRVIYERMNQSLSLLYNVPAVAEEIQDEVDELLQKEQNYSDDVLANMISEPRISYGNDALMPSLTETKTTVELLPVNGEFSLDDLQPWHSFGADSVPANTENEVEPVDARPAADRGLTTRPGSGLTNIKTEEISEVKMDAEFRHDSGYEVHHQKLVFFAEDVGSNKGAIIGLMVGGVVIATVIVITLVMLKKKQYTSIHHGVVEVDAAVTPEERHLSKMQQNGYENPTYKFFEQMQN
assay_notes: Inhibition of Cu2+-induced amyloid beta (1 to 42) (unknown origin) aggregation at 25 uM after 24 hrs by thioflavin-T fluorescence method
measured_quantity: inhibition (%)
Please reply with the bare figure in % and do not write the unit itself.

>>> experimental_value("COc1cc(O)c2c(c1)O/C(=C\\c1ccc(N3CCOCC3)cc1)C2=O")
47.5
>>> experimental_value("CN(C)c1ccc(CC2Oc3cc(O)cc(O)c3C2=O)cc1 (stereo unspecified)")
40.5
>>> experimental_value("CCN(CC)c1ccc(/C=C2\\Oc3cc(O)cc(O)c3C2=O)cc1")
88.9
>>> experimental_value("CN(C)c1ccc(/C=C2\\Oc3cc(N(C)C)cc(O)c3C2=O)cc1")
71.6
>>> experimental_value("O=C1/C(=C/c2ccc(N3CCCC3)cc2)Oc2cc(O)cc(O)c21")
84.8

Next item in the queue.
Give the measured inhibition for O=C1/C(=C/c2ccc(N3CCOCC3)cc2)Oc2cc(O)cc(O)c21 50.1

* * *

experimental_system: Amyloid-beta precursor protein (Homo sapiens)
assay_notes: Inhibition of self-induced amyloid beta (1 to 42) (unknown origin) aggregation at 25 uM after 24 hrs by thioflavin-T fluorescence method
Give T when the value for inhibition is at least 90%. Give F when it is less.

Before answering, review these 6 worked examples.
>>> class("COc1cc(O)c2c(c1)O/C(=C\\c1ccc(N3CCOCC3)cc1)C2=O")
"F"
>>> class("COc1cc(O)c2c(c1)O/C(=C\\c1ccc(N(C)C)cc1)C2=O")
"F"
>>> class("CN(C)c1ccc(CC2Oc3cc(O)cc(O)c3C2=O)cc1 (centres undefined)")
"F"
>>> class("CN(C)c1ccc(/C=C2\\Oc3cc(O)cc(O)c3C2=O)cc1")
"T"
>>> class("O=C1c2c(O)cc(O)cc2OC1Cc1ccc(N2CCOCC2)cc1 (centres undefined)")
"F"
>>> class("CN(C)c1ccc(/C=C2\\Oc3cc(N(C)C)cc(O)c3C2=O)cc1")
"F"

Could you tell me if the measured inhibition of O=C1/C(=C/c2ccc(N3CCCCC3)cc2)Oc2cc(O)cc(O)c21 reaches 90% or more? T

Could you tell me if the measured inhibition of CN(C)c1ccccc1/C=C1\Oc2cc(O)cc(O)c2C1=O reaches 90% or more? T

Could you tell me if the measured inhibition of CCN(C)c1ccc(/C=C2\Oc3cc(O)cc(O)c3C2=O)cc1 reaches 90% or more? T

Could you tell me if the measured inhibition of O=C1/C(=C/c2ccc(N3CCCC3)cc2)Oc2cc(O)cc(O)c21 reaches 90% or more? T

Could you tell me if the measured inhibition of O=C1/C(=C/c2ccc(N3CCOCC3)cc2)Oc2cc(O)cc(O)c21 reaches 90% or more? F

Could you tell me if the measured inhibition of COc1cc(O)c2c(c1)O/C(=C\c1ccc(N3CCCCC3)cc1)C2=O reaches 90% or more? F

Could you tell me if the measured inhibition of CN1CCN(c2ccc(/C=C3\Oc4cc(O)cc(O)c4C3=O)cc2)CC1 reaches 90% or more? F
